Values were extracted from patent US20260285850A1.

System: soybean (Glycine max)
protocol.notes: Test A postemergence application, visual injury rating 0-100
Type: in vivo
condition.details: Postemergence, 500 g ai/ha, 10 days; 0 is no effect, 100 is complete control
A collection of molecules and their measured Soybean plant response rating (0 to 100 scale)

Example results:
COC(=O)[C@H]1C[C@@H](NC(=O)C2(C)CN(c3cc(F)cc(F)c3)C(=O)O2)[C@H]2C[C@H]21 (some centres unmarked) ... 70
CC1(C(=O)NC2C=CC(C(=O)OCC#N)C2)CN(c2cc(F)cc(F)c2)C(=O)O1 (centres unmarked) ... 90
CC1(C(=O)NC2C=CC(C(=O)NS(C)(=O)=O)C2)CN(c2cc(F)cc(F)c2)C(=O)O1 (centres unmarked) ... 70
COCCOC(=O)C1C=CC(NC(=O)C2(C)CN(c3cc(F)cc(F)c3)C(=O)O2)C1 (centres unmarked) ... 80

Switching to the query record.
Briefly, Soybean plant response rating (0 to 100 scale) measured for CSCCOC(=O)C1C=CC(NC(=O)C2(C)CN(c3cc(Cl)cc(Cl)c3)C(=O)O2)C1 (centres unmarked) : 90

====

Test system: oat, wild (wild oat, Avena fatua)
protocol.notes: Test A postemergence application, visual injury rating 0-100
Format: in vivo
condition.details: 62 g ai/ha, postemergence, 10 days, 0 = no effect, 100 = complete control
Exam item: assign 1 to entries whose Oat, Wild plant response rating (0-100) is below 20 and 0 to entries at or above 20. Note that a value of exactly 20 receives 0.

Below, 3 compounds whose answers are already recorded.
CC1(C(=O)NC2CC=C(C(=O)OCC(F)F)C2)CN(c2cc(F)cc(F)c2)C(=O)O1 (stereo not drawn) ... 1
CCOC(=O)C1=CCC(NC(=O)C2(C)CN(c3cc(Cl)cc(Cl)c3)C(=O)O2)C1 (stereo not drawn) ... 1
C=CC1(C(=O)NC2COC(C(=O)OC)C2)CN(c2cc(F)cc(F)c2)C(=O)O1 (stereo not drawn) ... 0

*Q* Is the reported Oat, Wild plant response rating (0-100) for CSCCOC(=O)C1=CCC(NC(=O)C2(C)CN(c3cc(Cl)cc(Cl)c3)C(=O)O2)C1 (stereo not drawn) strictly below 20?
*A* 1

*Q* Is the reported Oat, Wild plant response rating (0-100) for C=CC1(C(=O)NC2C=CC(C(=O)OC)C2)CN(c2cc(F)cc(F)c2)C(=O)O1 (single isomer, unassigned) strictly below 20?
*A* 1

*Q* Is the reported Oat, Wild plant response rating (0-100) for CC1(C(=O)NC2CC=C(C(=O)OCC(F)F)C2)CN(c2cc(Cl)cc(Cl)c2)C(=O)O1 (stereo not drawn) strictly below 20?
*A* 0

*Q* Is the reported Oat, Wild plant response rating (0-100) for CC1(C(=O)NC2CC=C(C(=O)NS(=O)(=O)C3CC3)C2)CN(c2cc(F)cc(F)c2)C(=O)O1 (racemic) strictly below 20?
*A* 0

*Q* Is the reported Oat, Wild plant response rating (0-100) for COC(=O)COC(=O)C1=CCC(NC(=O)C2(C)CN(c3cc(Cl)cc(Cl)c3)C(=O)O2)C1 (stereo not drawn) strictly below 20?
*A* 0

*Q* Is the reported Oat, Wild plant response rating (0-100) for COC(=O)C1CC(NC(=O)C2(C)CN(c3cc(F)cc(Cl)c3)C(=O)O2)C1 (stereo not drawn) strictly below 20?
*A* 0

*Q* Is the reported Oat, Wild plant response rating (0-100) for C=CC1(C(=O)NC2CC(C(=O)OC)C2)CN(c2cc(F)cc(F)c2)C(=O)O1 (stereo not drawn) strictly below 20?
*A* 1
